system: CYP3A4/5; test: CYP direct inhibition in human liver microsomes; conditions: pooled human liver microsomes, probe midazolam

[
  {
    "compound": "CC(=O)N1CCN(c2ccc(OCC3COC(Cn4ccnc4)(c4ccc(Cl)cc4Cl)O3)cc2)CC1 (stereo not shown) [Ketoconazole, ketoconazole]",
    "target or test system": "CYP3A4/5",
    "IC50 at 10 min": "27 nM"
  }
]

----------
molecular target: CYP2C19 (Homo sapiens, UniProt P33261); experiment: CYP direct inhibition in human liver microsomes
Sequence (P33261 whole entry): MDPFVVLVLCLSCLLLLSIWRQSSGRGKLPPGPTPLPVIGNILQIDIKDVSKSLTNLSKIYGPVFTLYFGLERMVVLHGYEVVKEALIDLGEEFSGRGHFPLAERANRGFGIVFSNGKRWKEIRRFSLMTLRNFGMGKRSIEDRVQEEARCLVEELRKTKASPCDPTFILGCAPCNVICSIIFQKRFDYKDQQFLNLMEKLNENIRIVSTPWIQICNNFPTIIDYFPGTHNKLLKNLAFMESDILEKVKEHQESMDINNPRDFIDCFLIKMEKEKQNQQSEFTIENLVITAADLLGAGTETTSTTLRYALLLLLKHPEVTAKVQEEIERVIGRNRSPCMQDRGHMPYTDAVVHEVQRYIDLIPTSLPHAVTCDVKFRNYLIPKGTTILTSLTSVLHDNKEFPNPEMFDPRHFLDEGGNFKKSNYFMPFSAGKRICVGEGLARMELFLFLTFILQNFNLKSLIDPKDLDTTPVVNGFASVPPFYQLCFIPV
pIC50: −log10 of the molar value.
endpoint: pIC50

[
  {
    "molecule": "OC[C@H]1O[C@@H](OCCc2ccc(O)cc2)[C@H](O)[C@@H](O)[C@@H]1O [Salidroside]",
    "target or test system": "CYP2C19 (Homo sapiens, UniProt P33261)",
    "endpoint": "pIC50",
    "assay value": "< 4.30"
  }
]

----------
target: UniProt Q9NPD5; experiment: in vitro; conditions: human
Sequence (Q9NPD5 whole entry): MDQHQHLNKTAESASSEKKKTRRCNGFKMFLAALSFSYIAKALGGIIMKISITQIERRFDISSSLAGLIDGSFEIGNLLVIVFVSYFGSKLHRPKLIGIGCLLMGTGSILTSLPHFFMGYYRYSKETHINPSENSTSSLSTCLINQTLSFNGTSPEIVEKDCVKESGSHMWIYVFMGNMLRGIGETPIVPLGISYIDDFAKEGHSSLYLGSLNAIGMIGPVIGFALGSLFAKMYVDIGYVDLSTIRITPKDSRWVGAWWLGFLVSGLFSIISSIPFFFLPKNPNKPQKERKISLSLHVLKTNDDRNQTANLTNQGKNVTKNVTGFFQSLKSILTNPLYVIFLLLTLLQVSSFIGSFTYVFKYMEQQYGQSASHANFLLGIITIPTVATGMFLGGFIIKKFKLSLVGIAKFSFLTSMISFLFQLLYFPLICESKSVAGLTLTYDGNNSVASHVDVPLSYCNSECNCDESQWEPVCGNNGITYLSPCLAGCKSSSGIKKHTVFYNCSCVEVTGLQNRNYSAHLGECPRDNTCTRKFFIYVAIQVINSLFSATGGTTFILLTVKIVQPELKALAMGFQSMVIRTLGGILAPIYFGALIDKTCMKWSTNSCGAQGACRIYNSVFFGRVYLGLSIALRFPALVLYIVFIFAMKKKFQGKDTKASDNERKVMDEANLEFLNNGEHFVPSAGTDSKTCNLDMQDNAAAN
endpoint: IC50 at 2 min (µM)

[
  {
    "molecule": "CO[C@H]1/C=C/O[C@@]2(C)Oc3c(C)c(O)c4c(O)c(c(/C=N/N5CCN(C)CC5)c(O)c4c3C2=O)NC(=O)/C(C)=C\\C=C\\[C@H](C)[C@H](O)[C@@H](C)[C@@H](O)[C@@H](C)[C@H](OC(C)=O)[C@@H]1C [RIF, rifampicin, reference compound]",
    "assay value": 1.54
  }
]

----------
The entries below come with measured pIC50 values attached.
Target: recombinant human MAO-B (Homo sapiens, UniProt P27338)
Sequence (P27338 1-520): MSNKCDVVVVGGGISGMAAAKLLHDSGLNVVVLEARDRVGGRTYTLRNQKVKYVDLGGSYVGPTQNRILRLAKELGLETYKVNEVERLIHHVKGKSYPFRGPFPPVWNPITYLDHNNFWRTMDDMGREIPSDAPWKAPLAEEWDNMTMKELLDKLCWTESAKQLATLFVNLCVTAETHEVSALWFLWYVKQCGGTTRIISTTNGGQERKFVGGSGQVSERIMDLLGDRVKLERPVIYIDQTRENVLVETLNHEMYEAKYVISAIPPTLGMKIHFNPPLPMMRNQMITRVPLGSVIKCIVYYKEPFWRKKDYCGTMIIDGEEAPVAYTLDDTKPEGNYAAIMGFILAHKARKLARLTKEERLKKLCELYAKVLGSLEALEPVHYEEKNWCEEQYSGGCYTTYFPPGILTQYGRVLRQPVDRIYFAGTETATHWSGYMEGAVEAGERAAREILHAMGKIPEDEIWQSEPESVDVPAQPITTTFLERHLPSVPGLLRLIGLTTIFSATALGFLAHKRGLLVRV
Experiment: MAO inhibition, kynuramine oxidation to 4-hydroxyquinoline
Conditions: substrate kynuramine (20 µM); mean of N = 2
pIC50: −log10 of the molar value.
endpoint: pIC50

[
  {
    "compound": "OC[C@H]1O[C@@H](OCCc2ccc(O)cc2)[C@H](O)[C@@H](O)[C@@H]1O [Salidroside]",
    "target or test system": "recombinant human MAO-B (Homo sapiens, UniProt P27338)",
    "endpoint": "pIC50",
    "value comparator": "<",
    "assay value": 4.30
  },
  {
    "compound": "Cc1oncc1C(=O)Nc1ccc(C(F)(F)F)cc1 [leflunomide, reference compound]",
    "target or test system": "recombinant human MAO-B (Homo sapiens, UniProt P27338)",
    "endpoint": "pIC50",
    "value comparator": "=",
    "assay value": 5.13
  }
]
